- System: SF-268 CNS
- EXPERIMENT_SUMMARY: NCI tumour cell line growth inhibition, 48 h
QUANTITY_MEASURED: TGI

Solved cases below.
# COMPOUND, QUANTITY_MEASURED, REPORTED_MEASUREMENT
rows = [
    ("C[C@]12CCC(=O)C=C1CC[C@@H]1[C@@H]2[C@@H](O)C[C@@]2(C)[C@H]1CC[C@]2(O)C(=O)COC(=O)COCC(=O)O", "TGI", "> 100 µM"),
    ("C[Si](C)(OCCS(=O)(=O)O)C1(Cc2cccc3ccccc23)S(=O)(=O)OCCOS1(=O)=O", "TGI", "79.5 µM"),
    ("COC(=O)[C@]1(c2cc3ccccc3n2S(=O)(=O)c2ccccc2)CC2CN(C(C)=O)C1CC2=O (some centres undefined)", "TGI", "5.83 µM"),
]

# ---- query compound ----
Ask: For CCOC(=O)c1cc(-c2cc(OC)c(OC)c([N+](=O)[O-])c2)c([N+](=O)[O-])n1C , what is its reported TGI?
Reply: > 10 µM

###

- System: NCI-H522 lung
- EXPERIMENT_SUMMARY: NCI tumour cell line growth inhibition, 48 h
QUANTITY_MEASURED: TGI (µM)
Give bare numbers, in µM.

# COMPOUND, TGI (µM)
records = [
    ("CN(C)CCCOc1ccc(-c2ccc3ncc4c(c3c2)n(C2CCOCC2)c(=O)n4C)cn1", 12.4),
    ("CCCCC(C#N)(OP1(=O)OC(c2ccccc2)C(C)N1C)c1ccccc1 (stereo not given)", 33.7),
    ("O=C(Nc1cccc(-n2ccc3c(NC(=O)c4ccccc4)nccc32)c1)Nc1cc(C(F)(F)F)cc(C(F)(F)F)c1", 2.69),
    ("Nc1ccc(C2=NN(c3ccccc3)C(c3ccc(Cl)cc3)C2)cc1 (stereo not given)", 3.27),
]

# ---- query compound ----
Ask: API: value(readout=TGI, system=NCI-H522 lung) for record COC(=O)c1c2c(c[n+]([O-])c1C)C(=O)C=CC2=O
Reply: 4.5

###

- Tested on: OVCAR-5 ovarian
- EXPERIMENT_SUMMARY: NCI tumour cell line growth inhibition, 48 h; in the data active = GI50 below about 0.43 µM; inactive = the rest
// classify into Y (active), N (inactive)

For orientation, consider the following solved cases.
# MOLECULE, LABEL
measured = [
    ("CNC(=O)c1ccc(N2CCN(Cc3ccc4nc(C)c(=O)[nH]c4c3F)CC2)c(F)n1", "N"),
    ("Nc1ccc(C2=NN(c3ccccc3)C(c3ccc(Cl)cc3)C2)cc1 (stereo not given)", "N"),
    ("C[N-]c1nnnn1C.[Au+].c1ccc([PH+](c2ccccc2)c2ccccc2)cc1", "N"),
    ("Cc1nn(-c2nc3ccccc3[nH]2)c(N)c1-c1ccc(Cl)cc1", "N"),
    ("CCC[CH2][Sn]1([CH2]CCC)[O]CC(Cc2ccccc2)[O]1 (stereo not given)", "N"),
    ("CC[N+](CC)=c1sc2c(s1)C(c1ccc(Cl)cc1)Oc1ccc(Cl)cc1-2 (stereo not given)", "N"),
    ("CCOC(=O)N1CCN(c2nc(Nc3cc(C)[nH]n3)c3ccccc3n2)CC1", "N"),
    ("O=C(CO[N+](=O)[O-])Nc1ccc(C(=O)/C=C/c2ccc(Cl)cc2)cc1", "N"),
]

Ask: I would be grateful if you could indicate the recorded call for CCC[CH2][Sn]([CH2]CCC)([CH2]CCC)[O]c1ccc(Cl)cc1Cl .
Reply: Y

Ask: I would be grateful if you could indicate the recorded call for COc1ccc(S(=O)(=O)N2CC(C)(C)CN(S(=O)(=O)c3ccc(OC)cc3)C2C(=O)NO)cc1 .
Reply: N
